testedTarget: JAK3 (JH1 and JH2 domain) (Homo sapiens, UniProt P52333)
Sequence (P52333 521-1111 limits assumed): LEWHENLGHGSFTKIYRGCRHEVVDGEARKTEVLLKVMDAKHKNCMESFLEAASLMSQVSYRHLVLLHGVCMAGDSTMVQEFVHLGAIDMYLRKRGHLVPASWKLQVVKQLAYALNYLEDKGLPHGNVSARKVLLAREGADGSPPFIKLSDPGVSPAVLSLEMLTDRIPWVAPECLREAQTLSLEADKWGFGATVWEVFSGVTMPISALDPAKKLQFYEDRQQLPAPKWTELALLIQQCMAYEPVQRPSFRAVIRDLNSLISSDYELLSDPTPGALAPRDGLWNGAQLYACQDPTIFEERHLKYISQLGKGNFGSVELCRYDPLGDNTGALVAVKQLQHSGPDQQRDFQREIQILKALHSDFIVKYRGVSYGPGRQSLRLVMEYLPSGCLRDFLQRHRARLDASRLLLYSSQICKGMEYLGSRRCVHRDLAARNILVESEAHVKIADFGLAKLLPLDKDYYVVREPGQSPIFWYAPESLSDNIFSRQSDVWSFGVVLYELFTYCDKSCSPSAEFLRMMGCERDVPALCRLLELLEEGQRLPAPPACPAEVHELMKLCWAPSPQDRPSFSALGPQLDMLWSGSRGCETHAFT
test: JAK3 Kinase Assay (ELISA of peptide substrate phosphorylation)
studyConditions: purified JAK3 enzyme, 10 μM ATP, biotinylated peptide substrate, 1 hour at room temperature
pIC50: −log10 of the molar value.
Where pIC50 equals or exceeds 7, the correct label is criterion met; where it does not, the label is criterion not met.

// known answers, use as guide
> print(dat)
                                   compound                              testedtarget         grouplabel
1  O=C1NC(=O)c2c1c1c3ccccc3n3c1c1c2c2ccccc2n1CC(OC(=O)N1CCCC1CN1CCCC1)CC3 (stereo not drawn)  JAK3 (JH1 and JH2 domain) (Homo sapiens, UniProt P52333)  criterion not met
2  O=C1NCc2c1c1c3cc(/C=C/c4ccccn4)ccc3n3c1c1c2c2ccccc2n1CC(CO)C3 (stereo not drawn)  JAK3 (JH1 and JH2 domain) (Homo sapiens, UniProt P52333)  criterion not met
3  O=C1NCc2c1c1c3ccccc3n3c1c1c2c2ccccc2n1C/C=C\C3  JAK3 (JH1 and JH2 domain) (Homo sapiens, UniProt P52333)      criterion met

Pending compound:
Does the compound O=C(NCCCn1ccnc1)OC1CCn2c3ccccc3c3c4c(c5c6ccccc6n(c5c32)C1)C(=O)NC4=O (stereo not drawn) have recorded pIC50 that is 7 or more? criterion met

* * *

testedTarget: JAK3 (JH1 and JH2 domain) (Homo sapiens, UniProt P52333)
test: JAK3 Kinase Assay (ELISA of peptide substrate phosphorylation)
studyConditions: purified JAK3 enzyme, 10 μM ATP, biotinylated peptide substrate, 1 hour at room temperature
Doc: threshold 70 nM (exclusive). Items with IC50 beneath it return label 1; others return label 0.

API: query returns whether the molecule falls strictly under 70 nM in IC50. Query: O=C1NC(=O)c2c1c1c3ccccc3n3c1c1c2c2ccccc2n1CC(OC(=O)N1CCN(CCN2CCOCC2)CC1)CC3 (stereo not shown) [Cpd 56] label 0

Lab note: confirm whether the reported IC50 for this molecule is below 70 nM, equality not counting. molecule: O=C1NC(=O)c2c1c1c3cc(-c4cncnc4)ccc3n3c1c1c2c2ccccc2n1CC(O)CC3 (stereo not shown) [Cpd 34] label 1

Below 70 nM on IC50? Entry CC(C)(C)OC(=O)N1CCC(NC(=O)OCC2(O)Cn3c4ccccc4c4c5c(c6c7ccccc7n(c6c43)C2)C(=O)NC5)CC1 (stereo not shown) [Cpd 177] label 0

Confirm or reject: IC50 of O=C1NC(=O)c2c1c1c3ccccc3n3c1c1c2c2ccccc2n1CC(O)(C(=O)N1CCOCC1)C(O)C3 (stereo not shown) [Cpd 121] lies strictly below 70 nM label 1

Please let me know if O=C1NC(=O)c2c1c1c3cc(Br)ccc3n3c1c1c2c2ccccc2n1CC(O)CC3 (stereo not shown) [Cpd 31] shows IC50 below 70 nM. label 1

Bench note: check whether O=C1NC(=O)c2c1c1c3ccccc3n3c1c1c2c2ccccc2n1CC(OC(=O)N1CCN(C2CCCCC2)CC1)C(O)C3 (stereo not shown) [Cpd 101] shows IC50 below 70 nM label 0

Taken from patent US20070249590A1.
